Endpoint summary: IC50, system: Leucine-rich repeat serine/threonine-protein kinase 2 (Homo sapiens, UniProt Q5S007), multiple sources combined.

[
  {
    "STRUCTURE NOTATION": "Cc1nn(C2CCN(C)CC2)cc1Nc1ncc(Cl)c(NCCCN(C)C(=O)C2CCC2)n1",
    "IC50": "1 to 100 nM"
  },
  {
    "STRUCTURE NOTATION": "O=C(Nc1nc2ccc(C(F)(F)F)cc2s1)c1ccc(N2CCOCC2)cc1",
    "IC50": "1060 nM"
  },
  {
    "STRUCTURE NOTATION": "CC1(C)CCC(=O)N1CCCNc1nc(Nc2ccc(N3CCN(C4CC4)CC3)cc2)ncc1C1CC1",
    "IC50": "> 600 nM"
  },
  {
    "STRUCTURE NOTATION": "CN1CCN(Cc2cccc(-c3cnc4[nH]ccc4c3)c2)CC1",
    "IC50": "< 500 nM"
  },
  {
    "STRUCTURE NOTATION": "[2H]C1([2H])Oc2nn(C3CCOCC3)c(C)c2Nc2ncc3c(Cl)nn(c3n2)C([2H])([2H])C1([2H])[2H]",
    "IC50": "14 nM"
  }
]

## Task Item: `CNc1cc(Nc2ccc(S(=O)(=O)N3CCC(N4C[C@@H]5C[C@H]4CO5)CC3)cc2OC)nc2[nH]cc(C(F)(F)F)c12` Test system: Leucine-rich repeat serine/threonine-protein kinase 2 (Homo sapiens, UniProt Q5S007) Read-out: IC50 Value: ?
## Result < 100 nM

## Task # get_value(readout= IC50, system= Leucine-rich repeat serine/threonine-protein kinase 2 (Homo sapiens, UniProt Q5S007)) for `CCNc1cc(Nc2ccc(S(=O)(=O)N3CCOCC3)cc2OC)nc2[nH]cc(C(F)(F)F)c12`
## Result 301 to 1000 nM
